Reference source for all entries: PubChem BioAssay (EPA / NIEHS)

Assay details: ATG_AP_1_CIS: Attagene CIS-FACTORIAL HepG2 Assay for human Activator Protein 1 (AP-1) (AID 2282931)
Measurement conditions: HepG2 Attagene cis-factorial AP-1 reporter mRNA; actives raise or lower the signal
Activity calls are given as the source filed them. The calls were made as follows: active = hit-call score of the fitted dose curve at least 0.9, where 1 is the maximum; inactive = score below 0.9.
Give your call using only these classes: True = active, False = inactive

What is the recorded call for this compound in the test? Cc1cc(O)cc(C)c1Cl False

What is the recorded call for this compound in the test? OCCc1ccccn1 False

What is the recorded call for this compound in the test? CC1(C)S[C@@H]2[C@H](NC(=O)[C@H](N)c3ccccc3)C(=O)N2[C@H]1C(=O)O False

What is the recorded call for this compound in the test? CC(C)CC(=O)CC(C)CC(C)C (stereo not drawn) False

What is the recorded call for this compound in the test? Clc1ccc(Sc2cc(Cl)c(Cl)cc2Cl)cc1 False

What is the recorded call for this compound in the test? CNC(=C[N+](=O)[O-])NCCSCc1csc(CN(C)C)n1 False

---

Experimental target: Cellular tumor antigen p53 (Homo sapiens) (UniProt P04637)
Sequence (P04637 whole entry, looked up): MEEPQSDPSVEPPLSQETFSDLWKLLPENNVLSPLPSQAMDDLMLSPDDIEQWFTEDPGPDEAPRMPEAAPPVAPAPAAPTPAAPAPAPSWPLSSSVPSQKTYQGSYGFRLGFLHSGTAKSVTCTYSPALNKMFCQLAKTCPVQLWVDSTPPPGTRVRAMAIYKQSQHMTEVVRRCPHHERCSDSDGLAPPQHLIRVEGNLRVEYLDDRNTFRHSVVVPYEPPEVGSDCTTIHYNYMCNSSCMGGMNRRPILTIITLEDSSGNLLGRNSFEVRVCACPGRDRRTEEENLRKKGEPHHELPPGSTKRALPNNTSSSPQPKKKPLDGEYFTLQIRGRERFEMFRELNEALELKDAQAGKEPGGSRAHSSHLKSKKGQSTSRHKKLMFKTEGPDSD
Assay details: TOX21_p53_BLA_p3_ratio: Tox21 HCT-116 p53 Agonism Beta-lactamase Assay, Ratio, Phase 3 (AID 2283596)
Protocol: TOX21_p53_BLA_p3 is a cell-based, single-readout assay that uses HCT116, a human intestinal cell line, […] in a 1536-well plate.TOX21_p53_BLA_p3_ratio is an assay readout measuring reporter gene via receptor activity and designed using inducible reporter (beta lactamase induction) detected with GAL4 b-lactamase reporter gene. […] This assay endpoint, TOX21_p53_BLA_p3_ratio, was analyzed in the positive analysis fitting direction relative to DMSO as the negative control and baseline of activity. […]
Inconclusive results are not listed. Activity calls are given as the source filed them. The calls were made as follows: active = hit-call score of the fitted dose curve at least 0.9, where 1 is the maximum; inconclusive = response in the unintended direction; inactive = score below 0.9.
Give your call using only these classes: 1 for active, -1 for inactive

For orientation, consider the following solved cases.
What is the recorded call for this compound in the test? CCCCCCCCC1CO1 (stereo unspecified) -1

What is the recorded call for this compound in the test? Cc1ccc(C(=O)C(C)CN2CCCCC2)cc1 (stereo unspecified) -1

What is the recorded call for this compound in the test? CC(C)(c1ccc(Oc2ccc3c(c2)C(=O)OC3=O)cc1)c1ccc(Oc2ccc3c(c2)C(=O)OC3=O)cc1 -1

What is the recorded call for this compound in the test? Nc1ncnc2c1ncn2[C@H]1CC[C@@H](CO)O1 -1

What is the recorded call for this compound in the test? CCCCCCCCCCCBr -1

New cases:
What is the recorded call for this compound in the test? CN(C)CCc1c[nH]c2ccc(CS(=O)(=O)N3CCCC3)cc12 -1

What is the recorded call for this compound in the test? N[C@H](C(=O)O)[C@@H]1CC(Cl)=NO1 1

---

Experimental target: Cellular tumor antigen p53 (Homo sapiens)
Assay details: TOX21_p53_BLA_p2_ratio: Tox21 HCT-116 p53 Agonism Beta-lactamase Assay, Ratio, Phase 2 (AID 2283592)
Inconclusive results are not listed. Activity calls are given as the source filed them. Rule for the calls: active = hit-call score of the fitted dose curve at least 0.9, where 1 is the maximum; inconclusive = response in the unintended direction; inactive = score below 0.9.
Give your call using only these classes: 1 for active, 0 for inactive

For orientation, consider the following solved cases.
What is the recorded call for this compound in the test? N[C@H](CO)C(=O)O 0

What is the recorded call for this compound in the test? COc1cc(C=C2CCCC(=Cc3ccc(O)c(OC)c3)C2=O)ccc1O 0

What is the recorded call for this compound in the test? O=C(NOC[C@H](O)CO)c1ccc(F)c(F)c1Nc1ccc(I)cc1F 0

What is the recorded call for this compound in the test? CCN(CC)CCOc1ccc(Cc2ccccc2)cc1 0

What is the recorded call for this compound in the test? O=c1cccccc1O 0

What is the recorded call for this compound in the test? C[C@H]1C[C@H]2[C@@H]3CCC4=CC(=O)C=C[C@]4(C)[C@H]3C(=O)C[C@]2(C)[C@@]1(O)C(=O)CO 0

What is the recorded call for this compound in the test? CCCC(=O)OC 0

What is the recorded call for this compound in the test? CC(=O)O[C@H]1C(=O)[C@@]2(C)[C@H]([C@H](OC(=O)c3ccccc3)[C@]3(O)C[C@H](OC(=O)[C@H](O)[C@@H](NC(=O)c4ccccc4)c4ccccc4)C(C)=C1C3(C)C)[C@]1(OC(C)=O)CO[C@@H]1C[C@@H]2O 1

New cases:
What is the recorded call for this compound in the test? CC1=C(/C=C/C(C)=C\C=C\C(C)=C\C(=O)O)C(C)(C)CCC1 0

What is the recorded call for this compound in the test? COc1ccc(CN2CCN(C(c3ccc(F)cc3)c3ccc(F)cc3)CC2)c(OC)c1OC 0

What is the recorded call for this compound in the test? C/C=C/C=C/CO 0

What is the recorded call for this compound in the test? Cc1cc(/C=C/c2ccc3cc(N(C)C)ccc3[n+]2C)c(C)n1-c1ccccc1 1

What is the recorded call for this compound in the test? Nc1nnnn1-c1ccccc1 0

What is the recorded call for this compound in the test? O=C(c1ccccc1)c1cc(Cl)ccc1O 0

What is the recorded call for this compound in the test? COc1cc(Br)c(C[N+]2(CCOCCC3CCC4CC3C4(C)C)CCOCC2)cc1OC (configuration not stated) 0

What is the recorded call for this compound in the test? CN(C)C(=O)C(CCN1CCC(O)(c2ccc(Cl)cc2)CC1)(c1ccccc1)c1ccccc1 0

What is the recorded call for this compound in the test? Cc1cccc(Nc2ncccc2C(=O)O)c1C 0
